# study-target: human MCH receptor expressed from the open reading frame cDNA SEQ. ID. NO. 1 in 293-AEQ17 cells (human, UniProt Q99705 1-353)
# Sequence (Q99705 whole entry): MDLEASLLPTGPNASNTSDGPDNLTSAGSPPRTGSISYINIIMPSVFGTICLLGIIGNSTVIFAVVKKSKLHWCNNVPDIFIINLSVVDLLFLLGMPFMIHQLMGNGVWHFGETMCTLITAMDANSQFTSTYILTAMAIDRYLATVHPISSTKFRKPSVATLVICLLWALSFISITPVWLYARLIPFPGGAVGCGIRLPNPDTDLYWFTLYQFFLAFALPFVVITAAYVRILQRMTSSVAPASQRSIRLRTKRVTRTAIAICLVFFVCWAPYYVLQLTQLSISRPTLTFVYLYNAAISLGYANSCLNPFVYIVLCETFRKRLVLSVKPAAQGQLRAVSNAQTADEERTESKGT
# run-description: cell-based or functional assay
Bridges are numbered along the chain shown (N, C = ends).
observable: EC50

| binder | observable | result |
| --- | --- | --- |
| Ac-RCMLGRVYRPC-NH2 (disulfide 2-11 (inferred), Corresponds to MCH positions 6-16; also called ID; NO; 7 MCH analog) [truncated MCH analog SEQ. ID. NO. 7: Ac-Arg-Cys-Met-Leu-Gly-Arg-Val-Tyr-Arg-Pro-Cys-amide] | EC50 | 20 nM |
| SCMLGRVYRPC (Ac-Ser at position 6 (N-terminal acetyl); C-terminal amide, Cys-Cys disulfide as in SEQ. ID. NO. 7, ID; NO; 7 peptide; MCH position numbering) [MCH analog SEQ. ID. NO. 35 (position 6: Ac-Ser)] | EC50 | 207 nM |
| Ac-CMLGRVYRPC-NH2 (disulfide 1-10; SMILES CSCC[C@@H]1NC(=O)[C@@H](NC(C)=O)CSSC[C@@H](C(N)=O)NC(=O)[C@@H]2CCCN2C(=O)[C@H](CCCNC(=N)N)NC(=O)[C@H](Cc2ccc(O)cc2)NC(=O)[C@H](C(C)C)NC(=O)[C@H](CCCNC(=N)N)NC(=O)CNC(=O)[C@H](CC(C)C)NC1=O, ID; NO; 7 peptide; MCH position numbering) [MCH analog SEQ. ID. NO. 38 (position 6: Ac)] | EC50 | 144 nM |
